# target_under_test: Neuraminidase (Influenza A virus (A/Memphis/1/1971(H3N2)), UniProt P03471, E119V)
# assay_explanation: Inhibition of influenza A virus H3N2 (A/Moscow/10/99) harboring E119V mutant neuraminidase using MUNANA as substrate preincubated for 30 mins followed by substrate addition by fluorescence-based assay
endpoint_label: IC50 (nM)

CCC(CC)O[C@@H]1C=C(C(=O)O)C[C@H](n2nncc2-c2cccc(N)c2)[C@H]1NC(C)=O; 790
